biological target: Recombinant Human 5′-Nucleotidase (CD73) (Homo sapiens, UniProt P21589); construct: CHO derived CD73 (Trp27-Lys547), with a C-terminal 6-His tag; 6-His (C); experiment: CD73 Enzyme Assay (PiColorLock inorganic phosphate detection, AMP substrate); settings: human CD73 0.5 nM, AMP 30 μM, 20 min at 37° C., absorbance 635 nm; read-out: Potency (IC50)
Sequence (P21589 27-547): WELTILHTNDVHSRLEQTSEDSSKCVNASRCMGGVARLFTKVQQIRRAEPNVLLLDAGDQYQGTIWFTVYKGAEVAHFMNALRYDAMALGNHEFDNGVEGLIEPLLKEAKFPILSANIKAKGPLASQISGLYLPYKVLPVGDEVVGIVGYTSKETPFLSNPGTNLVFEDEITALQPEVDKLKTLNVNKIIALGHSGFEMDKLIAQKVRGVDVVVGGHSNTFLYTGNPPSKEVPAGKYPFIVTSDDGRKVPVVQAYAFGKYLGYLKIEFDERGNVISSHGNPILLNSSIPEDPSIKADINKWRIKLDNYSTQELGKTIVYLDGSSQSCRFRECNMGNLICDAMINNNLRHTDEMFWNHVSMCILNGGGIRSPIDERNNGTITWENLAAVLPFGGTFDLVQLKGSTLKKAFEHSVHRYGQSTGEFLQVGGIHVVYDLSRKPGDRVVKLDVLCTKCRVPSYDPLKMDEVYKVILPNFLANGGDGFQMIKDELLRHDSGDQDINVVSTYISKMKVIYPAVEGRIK
pIC50: −log10 of the molar value.
QUANTITY_NAME: pIC50

INSERT INTO assay_data (compound, quantity_name, result) VALUES
  ('O=P(O)(O)CP(=O)(O)OC[C@H]1O[C@@H](c2cnc3c(NC4CCCCC4)cc(Cl)nn23)[C@H](O)[C@@H]1O', 'pIC50', '8.00 to 9.00'),
  ('O=P(O)(O)CP(=O)(O)OC[C@H]1O[C@@H](c2cnc3c(NC4CCCC4)cc(Cl)nn23)[C@H](O)[C@@H]1O', 'pIC50', '8.00 to 9.00'),
  ('O=P(O)(O)CP(=O)(O)OC[C@H]1O[C@@H](c2ncc3c(NC4CCCC4)cc(Cl)nn23)[C@H](O)[C@@H]1O', 'pIC50', '8.00 to 9.00'),
  ('O=P(O)(O)CP(=O)(O)OC[C@H]1OC(c2cnc3c(OC4CCCC4)cc(Cl)nn23)[C@H](O)[C@@H]1O (stereo partly drawn)', 'pIC50', '8.00 to 9.00'),
  ('O=P(O)(O)CP(=O)(O)OC[C@H]1O[C@@H](c2cnc3c(N4CCC[C@H]4c4ccccc4)cc(Cl)nn23)[C@H](O)[C@@H]1O', 'pIC50', '8.00 to 9.00'),
  ('O=P(O)(O)CP(=O)(O)OC[C@H]1OC(c2cnc3c(NCc4ccccc4Cl)cc(Cl)nn23)[C@H](O)[C@@H]1O (stereo partly drawn)', 'pIC50', '8.00 to 9.00');

---

Entries and their measured pIC50 follow.
molecular target: Recombinant Human 5′-Nucleotidase (CD73) (Homo sapiens, UniProt P21589); construct: CHO derived CD73 (Trp27-Lys547), with a C-terminal 6-His tag; 6-His (C); test: CD73 Enzyme Assay (PiColorLock inorganic phosphate detection, AMP substrate); details: human CD73 0.5 nM, AMP 30 μM, 20 min at 37° C., absorbance 635 nm; read-out: Potency (IC50)
pIC50: −log10 of the molar value.
QUANTITY_NAME: pIC50

INSERT INTO assay_data (compound, result) VALUES
  ('O=P(O)(O)CP(=O)(O)OC[C@H]1OC(c2cnc3c(N4CCc5ccccc5C4)cc(Cl)nn23)[C@H](O)[C@@H]1O (some centres unmarked)', '8.00 to 9.00'),
  ('O=P(O)(O)CP(=O)(O)OC[C@H]1O[C@@H](c2cnc3c(N4CCC(F)(F)C4)cc(Cl)nn23)[C@H](O)[C@@H]1O', '8.00 to 9.00'),
  ('O=P(O)(O)CP(=O)(O)OC[C@H]1O[C@@H](c2csc3c(N4CC5CCCC5C4)nc(Cl)nc23)[C@@H](F)[C@@H]1O (some centres unmarked)', '7.00 to 8.00'),
  ('O=P(O)(O)CP(=O)(O)OC[C@H]1OC(c2cnc3c(N4CC5CCCC5C4)cc(Cl)nn23)[C@@H](F)[C@@H]1O (some centres unmarked)', '8.00 to 9.00'),
  ('O=P(O)(O)CP(=O)(O)OC[C@H]1O[C@@H](c2cnc3c(NC4CCCC4)cc(Cl)nn23)[C@@H](F)[C@@H]1O', '7.00 to 8.00'),
  ('O=P(O)(O)CP(=O)(O)OC[C@H]1O[C@@H](c2cnc3c(N4CC5CCCC5C4)cc(Cl)nn23)[C@H](O)[C@@H]1O (some centres unmarked)', '> 9.00'),
  ('O=P(O)(O)CP(=O)(O)OC[C@H]1OC(c2cnc3c(NC4CCC(F)(F)C4)cc(Cl)nn23)[C@H](O)[C@@H]1O (some centres unmarked)', '8.00 to 9.00'),
  ('O=P(O)(O)CP(=O)(O)OC[C@H]1OC(c2cnc3c(N4CCCC4)cc(Cl)nn23)[C@@H](F)[C@@H]1O (some centres unmarked)', '7.00 to 8.00');
